Tested on: S. aureus VRSA
measurement-notes: MIC, broth microdilution, vancomycin-resistant S. aureus (VRSA)
Assay type: cell-based, Staphylococcus aureus
conditions-used: VRSA; ratio of MIC of vancomycin and MIC of analogue
measure: MIC-fold improvement vs. vancomycin
The answer should be a number; do not append a unit.

Reference set (2 entries):
The compound CCCCCCCc1ccc(C(=O)NCCCNC(=O)C2NC(=O)C3NC(=O)C(NC(=O)C4NC(=O)C(CC(N)=O)NC(=O)C(NC(=O)C(CC(C)C)NC)C(O)c5ccc(c(Cl)c5)Oc5cc4cc(c5OC4OC(CO)C(O)C(O)C4OC4CC(C)(N)C(O)C(C)O4)Oc4ccc(cc4Cl)C3O)c3ccc(O)c(c3)-c3c(O)cc(O)cc32)cc1 (stereo not drawn) [Vanc-31] showed MIC-fold improvement vs. vancomycin equal to 128

The compound CNC(CC(C)C)C(=O)NC1C(=O)NC(CC(N)=O)C(=O)NC2C(=O)NC3C(=O)NC(C(=O)NC(C(=O)NCC(=O)Nc4ccc5c(c4)C(=O)c4ccccc4-5)c4cc(O)cc(O)c4-c4cc3ccc4O)C(O)c3ccc(c(Cl)c3)Oc3cc2cc(c3OC2OC(CO)C(O)C(O)C2OC2CC(C)(N)C(O)C(C)O2)Oc2ccc(cc2Cl)C1O (stereo not drawn) [Vanc-89] showed MIC-fold improvement vs. vancomycin equal to 128

Continuing:
The compound CN[C@H](CC(C)C)C(=O)N[C@H]1C(=O)N[C@@H](CC(N)=O)C(=O)N[C@H]2C(=O)N[C@H]3C(=O)N[C@H](C(=O)N[C@H](C(=O)NCC(=O)Nc4ccc(Cl)cn4)c4cc(O)cc(O)c4-c4cc3ccc4O)[C@H](O)c3ccc(c(Cl)c3)Oc3cc2cc(c3O[C@@H]2O[C@H](CO)[C@@H](O)[C@H](O)[C@H]2O[C@H]2C[C@](C)(N)[C@H](O)[C@H](C)O2)Oc2ccc(cc2Cl)[C@H]1O [Vanc-44] showed MIC-fold improvement vs. vancomycin equal to 8

The compound CN[C@H](CC(C)C)C(=O)N[C@H]1C(=O)N[C@@H](CC(N)=O)C(=O)N[C@H]2C(=O)N[C@H]3C(=O)N[C@H](C(=O)N[C@H](C(=O)NCCNC(=O)/C=C/c4cccc(OC)c4)c4cc(O)cc(O)c4-c4cc3ccc4O)[C@H](O)c3ccc(c(Cl)c3)Oc3cc2cc(c3O[C@@H]2O[C@H](CO)[C@@H](O)[C@H](O)[C@H]2O[C@H]2C[C@](C)(N)[C@H](O)[C@H](C)O2)Oc2ccc(cc2Cl)[C@H]1O [Vanc-23] showed MIC-fold improvement vs. vancomycin equal to 16

The compound CN[C@H](CC(C)C)C(=O)N[C@H]1C(=O)N[C@@H](CC(N)=O)C(=O)N[C@H]2C(=O)N[C@H]3C(=O)N[C@H](C(=O)N[C@H](C(=O)NCC(=O)Nc4ccc(NS(=O)(=O)c5ccc(Cl)cc5Cl)cc4)c4cc(O)cc(O)c4-c4cc3ccc4O)[C@H](O)c3ccc(c(Cl)c3)Oc3cc2cc(c3O[C@@H]2O[C@H](CO)[C@@H](O)[C@H](O)[C@H]2O[C@H]2C[C@](C)(N)[C@H](O)[C@H](C)O2)Oc2ccc(cc2Cl)[C@H]1O [Vanc-61] showed MIC-fold improvement vs. vancomycin equal to 256

The compound CN[C@H](CC(C)C)C(=O)N[C@H]1C(=O)N[C@@H](CC(N)=O)C(=O)N[C@H]2C(=O)N[C@H]3C(=O)N[C@H](C(=O)N[C@H](C(=O)NCC(=O)Nc4c(C)cc(C)cc4C)c4cc(O)cc(O)c4-c4cc3ccc4O)[C@H](O)c3ccc(c(Cl)c3)Oc3cc2cc(c3O[C@@H]2O[C@H](CO)[C@@H](O)[C@H](O)[C@H]2O[C@H]2C[C@](C)(N)[C@H](O)[C@H](C)O2)Oc2ccc(cc2Cl)[C@H]1O [Vanc-9] showed MIC-fold improvement vs. vancomycin equal to 4
